# Assay: V. cholerae lux activation without autoinducers – BH1578 luxS cqsA deficient, cherry-pick, plate reader, dose response (AID 602243)
# Condition Label: V. cholerae BH1578 lux reporter, luminescence, 6 h; series mostly up to 50 µM
This is one part of the list. The source made the active and inactive calls. The rule behind the calls is not given here.
Measure: outcome

Look over these answered cases.
CCCn1nnnc1NCc1ccc(CC)cc1 | inactive
COc1ccc(OCc2cn3c(C)cc(C)nc3n2)cc1 | inactive
NNC(=O)c1nnn(-c2nonc2N)c1CN1CCCC1 | inactive
CCCS(=O)(=O)N1CCCC(C(=O)N2CCN(c3ccccc3)CC2)C1 (stereo not given) | inactive
CCN(CC(=O)NCc1ccc(Cl)cc1)C(=O)CSc1ccccc1 | inactive

Batch of 4 molecules: report outcome for each.
1. COc1ccccc1CCNC(=O)C(=O)NCCC1CCCCN1S(=O)(=O)c1cccs1 (stereo not given)
2. COc1ccc(S(=O)(=O)N2CCN(c3cnccn3)CC2)cc1
3. COCCn1nnnc1CN1CCC(NC(=O)Nc2cccc(OC)c2)CC1
4. O=C(Cc1ccc2c(c1)CCCC2)Nc1ccccc1Cl

inactive
inactive
inactive
inactive

Batch of 6 molecules: report outcome for each.
1. CCOC(=O)C1(CCOc2ccccc2)CCN(Cc2cc(OC)cc(OC)c2)CC1
2. COc1cc(S(=O)(=O)N(Cc2cccs2)C2CC2)ccc1-n1cnnn1
3. COc1ccc2[nH]c(=O)c(CNc3ccc(C)c(C)c3)cc2c1
4. O=C(NCc1ccccn1)c1c(O)c2c([nH]c1=O)CCCC2
5. CC(C)CNC(=O)COC(=O)/C=C/c1ccco1
6. COc1ccc(N(CC(=O)NC2CCCCC2)C(=O)CNC(=O)c2ccco2)c(OC)c1

1: inactive; 2: inactive; 3: inactive; 4: inactive; 5: inactive; 6: inactive

Batch of 4 molecules: report outcome for each.
1. CN(CC(=O)Nc1ccc(OC(F)(F)F)cc1)C(=O)C1CCC1
2. COc1ccc(Cl)cc1NC(=O)COC(=O)c1ccc(Br)o1
3. O=C(Nc1ccc2oc(-c3ccc4ccccc4c3)nc2c1)c1cccs1
4. NC(=O)c1nsc(C(=O)N(CC(=O)NCc2ccc(F)cc2)Cc2ccco2)c1N

["inactive", "inactive", "inactive", "inactive"]

Quick one: outcome of CCC(C)(C)n1nnnc1CN1CCN(c2nc3ccc(C)cc3cc2C#N)CC1 ?
inactive
